target: human VAP-1 (SSAO) (Homo sapiens); test: In vitro determination of human VAP-1 (SSAO) inhibition (HRP-coupled Amplex Red, benzylamine substrate); conditions: purified recombinant human VAP-1 (SSAO), benzylamine 100 μM, room temperature, about 15 min pre-incubation
Sequence (Q16853 29-763 limits assumed): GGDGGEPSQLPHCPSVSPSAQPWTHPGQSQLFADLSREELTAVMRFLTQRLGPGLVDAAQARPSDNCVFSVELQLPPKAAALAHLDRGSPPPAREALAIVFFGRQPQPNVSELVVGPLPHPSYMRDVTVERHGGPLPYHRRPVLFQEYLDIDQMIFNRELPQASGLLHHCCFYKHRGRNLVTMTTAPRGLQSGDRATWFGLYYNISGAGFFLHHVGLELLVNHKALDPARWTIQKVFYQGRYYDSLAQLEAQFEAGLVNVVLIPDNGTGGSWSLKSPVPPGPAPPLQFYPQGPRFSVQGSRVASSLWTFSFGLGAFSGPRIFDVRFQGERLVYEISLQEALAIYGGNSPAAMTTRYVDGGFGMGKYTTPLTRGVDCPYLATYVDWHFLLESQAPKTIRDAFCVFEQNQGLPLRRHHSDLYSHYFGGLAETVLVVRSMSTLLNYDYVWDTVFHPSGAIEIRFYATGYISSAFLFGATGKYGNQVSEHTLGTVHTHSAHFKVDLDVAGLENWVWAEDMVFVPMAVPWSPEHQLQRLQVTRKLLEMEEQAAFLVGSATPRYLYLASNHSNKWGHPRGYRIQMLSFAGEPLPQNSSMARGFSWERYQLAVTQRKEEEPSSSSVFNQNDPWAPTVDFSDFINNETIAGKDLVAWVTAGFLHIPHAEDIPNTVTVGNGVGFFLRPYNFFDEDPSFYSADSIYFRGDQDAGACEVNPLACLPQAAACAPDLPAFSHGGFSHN
QUANTITY KIND: IC50 (nM)

INSERT INTO assay_data (compound, units_text, result) VALUES
  ('C[C@](Cc1ccc(O)c(O)c1)(NN)C(=O)O (single isomer, unassigned) [(S)-Carbidopa]', 'nM', 142),
  ('C[C@](Cc1ccc(O)c(O)c1)(NN)C(=O)O [(R)-Carbidopa, (R)-carbidopa]', 'nM', 148);
